system: SKMEL28; test: 11×7 synergism hit rate; type: cell-based; details: Melanoma SKMEL28, combination with SR16388
outcome_measure: % Hit rate (%)
Report as a plain number; the unit % is understood.

CC(=O)O[C@@]12CO[C@@H]1C[C@H](O)[C@@]1(C)C(=O)[C@H](O)C3=C(C)[C@@H](OC(=O)[C@H](O)[C@@H](NC(=O)OC(C)(C)C)c4ccccc4)C[C@@](O)([C@@H](OC(=O)c4ccccc4)[C@H]21)C3(C)C = 31

Data request: // returns reported % Hit rate for input `CC(=O)O[C@H]1C(=O)[C@@]2(C)[C@H]([C@H](OC(=O)c3ccccc3)[C@]3(O)C[C@H](OC(=O)[C@H](O)[C@@H](NC(=O)c4ccccc4)c4ccccc4)C(C)=C1C3(C)C)[C@]1(OC(C)=O)CO[C@@H]1C[C@@H]2O`
Data returned: 35

Data request: And what about the compound `CC[C@]1(O)C[C@@H]2CN(CCc3c([nH]c4ccccc34)[C@@](C(=O)OC)(c3cc4c(cc3OC)N(C)[C@H]3[C@@](O)(C(=O)OC)[C@H](OC(C)=O)[C@]5(CC)C=CCN6CC[C@]43[C@@H]65)C2)C1` ?
Data returned: 8

Data request: And what about the compound `CC[C@]1(O)C[C@H]2CN(CCc3c([nH]c4ccccc34)[C@@](C(=O)OC)(c3cc4c(cc3OC)N(C=O)[C@H]3[C@@](O)(C(=O)OC)[C@H](OC(C)=O)[C@]5(CC)C=CCN6CC[C@]43[C@@H]65)C2)C1` ?
Data returned: 22
